Assay target: Tyrosine-protein kinase BTK (Homo sapiens, UniProt Q06187)
Sequence (Q06187 whole entry): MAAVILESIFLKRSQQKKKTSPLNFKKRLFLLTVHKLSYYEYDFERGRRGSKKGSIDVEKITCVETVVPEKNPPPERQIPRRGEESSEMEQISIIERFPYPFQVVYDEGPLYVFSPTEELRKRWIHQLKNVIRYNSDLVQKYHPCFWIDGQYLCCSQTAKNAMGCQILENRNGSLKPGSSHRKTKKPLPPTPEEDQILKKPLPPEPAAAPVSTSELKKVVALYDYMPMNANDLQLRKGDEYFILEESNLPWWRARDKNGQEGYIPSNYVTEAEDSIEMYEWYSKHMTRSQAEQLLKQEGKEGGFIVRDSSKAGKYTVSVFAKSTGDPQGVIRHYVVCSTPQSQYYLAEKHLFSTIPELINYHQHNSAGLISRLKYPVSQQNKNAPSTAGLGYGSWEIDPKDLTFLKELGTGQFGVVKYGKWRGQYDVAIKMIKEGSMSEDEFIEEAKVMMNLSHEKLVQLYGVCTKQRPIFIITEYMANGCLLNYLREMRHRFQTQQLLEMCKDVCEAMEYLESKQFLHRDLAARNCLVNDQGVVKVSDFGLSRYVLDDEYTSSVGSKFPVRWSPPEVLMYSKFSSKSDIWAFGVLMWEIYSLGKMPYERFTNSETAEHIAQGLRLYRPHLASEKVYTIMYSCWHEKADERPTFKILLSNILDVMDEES
Assay protocol: Inhibition of human recombinant BTK
Could you please report measured IC50 for the items listed next?
One number for each entry, in nM.

Look over these answered cases.
Structure notation	Assay target	IC50 / nM
Cc1c(NC(=O)c2ccc(C(C)(C)C)cc2)cccc1-c1ccc(C(N)=O)c2[nH]c3cc(C(=O)N4CCN(C)CC4)ccc3c12	Tyrosine-protein kinase BTK (Homo sapiens, UniProt Q06187)	12
CNC(=O)c1ccc(-c2ccc(C(N)=O)c3[nH]c4cc(C(=O)N5CCN(C)CC5)ccc4c23)cc1	Tyrosine-protein kinase BTK (Homo sapiens, UniProt Q06187)	44

Please report IC50 for every entry that follows.
1. CC(=O)Nc1cccc(-c2ccc(C(N)=O)c3[nH]c4ccc(C(=O)N5CCN(C)CC5)cc4c23)c1
2. COc1ccccc1-c1ccc(C(N)=O)c2[nH]c3cc(C(=O)N4CCN(C)CC4)ccc3c12

Result:
1. 88
2. 144

----------
Assay protocol: Drugrecovery in mouse liver microsomes after 10 mins
Format: ADME
Measured attribute: remaining at 10 min

The compound listed as CC(C)(C)c1ccc(C(=O)N[C@@H]2CCCN(c3ccc(C(N)=O)c(Nc4ccc(C(=O)N5CCOCC5)cc4)n3)C2)cc1 has a reported remaining at 10 min of < 3%

----------
# pIC50 per entry for Tyrosine-protein kinase Lck (Homo sapiens)
Give bare numbers, as −log10 of the molar value.

Structure notation	pIC50
CN1CCN(C(=O)c2ccc3c(c2)[nH]c2c(C(N)=O)ccc(-c4ccccc4F)c23)CC1	7.09

Continue with the next compound.
pIC50 recorded for this compound, CC(=O)Nc1cccc(-c2ccc(C(N)=O)c3[nH]c4cc(C(=O)N5CCN(C)CC5)ccc4c23)c1C , is 6.97

----------
Provide the recorded IC50 for the entries that follow.
Assay target: Tyrosine-protein kinase BTK (Homo sapiens, UniProt Q06187)
Assay protocol: Inhibition of human recombinant BTK

Answered examples (4):
Structure notation	Measured attribute	Result
COc1ccc(-c2ccc(C(N)=O)c3[nH]c4cc(C(=O)N5CCN(C)CC5)ccc4c23)cc1	IC50	55 nM
NC(=O)c1cc(-c2ccc(Cl)cc2)cc2c1[nH]c1ccc(C(=O)N3CCOCC3)cc12	IC50	308 nM
CN1CCN(C(=O)c2ccc3[nH]c4c(C(N)=O)cc(-c5ccc(Cl)cc5)cc4c3c2)CC1	IC50	110 nM
CC(=O)Nc1ccc(-c2ccc(C(N)=O)c3[nH]c4cc(C(=O)N5CCN(C)CC5)ccc4c23)cc1	IC50	15 nM

Field: IC50. Fill in for each record below.
1. COc1cccc(-c2cc(C(N)=O)c3[nH]c4cc(C(=O)N5CCN(C)CC5)ccc4c3c2)c1
2. Cc1c(Cl)cccc1-c1ccc(C(N)=O)c2[nH]c3cc(C(=O)N4CCN(C)CC4)ccc3c12
3. CN1CCN(C(=O)c2ccc3c(c2)[nH]c2c(C(N)=O)ccc(-c4ccc(Cl)c(Cl)c4)c23)CC1
4. Cc1c(NC(=O)c2ccc(N(C)C)cc2)cccc1-c1ccc(C(N)=O)c2[nH]c3cc(C(=O)N4CCN(C)CC4)ccc3c12
5. Cc1c(NC(=O)c2ccccc2)cccc1-c1ccc(C(N)=O)c2[nH]c3cc(C(=O)N4CCN(C)CC4)ccc3c12
6. NC(=O)c1cc(-c2cccc(Cl)c2)cc2c1[nH]c1ccc(C(=O)N3CCOCC3)cc12

Result:
1. 404 nM
2. 32 nM
3. 101 nM
4. 3.5 nM
5. 7.2 nM
6. 189 nM

State the recorded IC50 for every item in the following list.
1. CN1CCN(C(=O)c2ccc3c(c2)[nH]c2c(C(N)=O)ccc(-c4ccccc4F)c23)CC1
2. CN1CCN(C(=O)c2ccc3c(c2)[nH]c2c(C(N)=O)ccc(-c4cccc(F)c4F)c23)CC1
3. CN1CCN(C(=O)c2ccc3c(c2)[nH]c2c(C(N)=O)ccc(-c4cccc(Cl)c4Cl)c23)CC1
4. Cc1c(N)cccc1-c1ccc(C(N)=O)c2[nH]c3cc(C(=O)N4CCN(C)CC4)ccc3c12
5. CN1CCN(C(=O)c2ccc3c(c2)[nH]c2c(C(N)=O)ccc(-c4c(F)cccc4F)c23)CC1
6. CN1CCN(C(=O)c2ccc3c(c2)[nH]c2c(C(N)=O)ccc(-c4ccc(Oc5ccccc5)cc4)c23)CC1

Result:
1: 15 nM; 2: 6.9 nM; 3: 13 nM; 4: 19 nM; 5: 12 nM; 6: 127 nM

----------
Here we list compounds with their recorded IC50 when tested on Tyrosine-protein kinase JAK2 (Homo sapiens, UniProt O60674).
Sequence (O60674 whole entry): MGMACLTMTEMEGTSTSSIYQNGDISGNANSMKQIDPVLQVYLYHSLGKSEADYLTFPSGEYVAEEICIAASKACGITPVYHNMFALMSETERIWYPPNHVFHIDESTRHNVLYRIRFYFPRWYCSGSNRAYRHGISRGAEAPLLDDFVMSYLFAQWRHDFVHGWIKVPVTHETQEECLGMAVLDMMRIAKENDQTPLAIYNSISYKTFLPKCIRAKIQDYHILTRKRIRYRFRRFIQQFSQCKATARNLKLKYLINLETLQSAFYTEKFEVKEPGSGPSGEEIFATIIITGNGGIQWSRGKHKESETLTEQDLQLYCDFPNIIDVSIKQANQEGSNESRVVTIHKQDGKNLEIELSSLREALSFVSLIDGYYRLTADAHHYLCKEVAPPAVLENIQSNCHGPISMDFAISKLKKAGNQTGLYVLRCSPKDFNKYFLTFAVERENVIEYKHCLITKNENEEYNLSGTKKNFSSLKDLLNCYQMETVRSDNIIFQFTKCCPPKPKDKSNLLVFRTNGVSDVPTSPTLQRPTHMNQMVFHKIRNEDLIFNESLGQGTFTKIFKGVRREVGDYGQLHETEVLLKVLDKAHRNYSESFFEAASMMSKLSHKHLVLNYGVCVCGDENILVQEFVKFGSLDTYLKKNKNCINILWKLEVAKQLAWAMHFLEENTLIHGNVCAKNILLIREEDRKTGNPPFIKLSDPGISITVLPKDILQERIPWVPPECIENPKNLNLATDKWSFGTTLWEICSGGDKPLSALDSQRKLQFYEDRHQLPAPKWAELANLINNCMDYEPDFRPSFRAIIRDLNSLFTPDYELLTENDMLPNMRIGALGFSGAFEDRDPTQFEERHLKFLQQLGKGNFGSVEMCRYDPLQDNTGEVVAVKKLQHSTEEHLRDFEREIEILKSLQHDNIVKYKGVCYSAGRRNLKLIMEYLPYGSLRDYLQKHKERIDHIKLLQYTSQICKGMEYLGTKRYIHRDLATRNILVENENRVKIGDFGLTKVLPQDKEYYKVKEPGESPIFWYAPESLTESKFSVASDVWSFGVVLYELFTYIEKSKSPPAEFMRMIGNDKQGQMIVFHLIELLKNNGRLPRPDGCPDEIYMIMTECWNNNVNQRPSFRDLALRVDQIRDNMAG
Answers are plain numbers, in nM.

Here's what some known entries look like.
Structure notation	Recorded number
CC(=O)Nc1cccc(-c2ccc(C(N)=O)c3[nH]c4cc(C(=O)N5CCN(C)CC5)ccc4c23)c1C	212
NC(=O)c1cc(-c2ccc(Cl)cc2)cc2c1[nH]c1ccc(C(=O)N3CCOCC3)cc12	2.6
COc1ccc(-c2cc(C(N)=O)c3[nH]c4ccc(C(=O)N5CCOCC5)cc4c3c2)cc1	2

# compound NC(=O)c1cc(-c2cccc(Cl)c2)cc2c1[nH]c1ccc(C(=O)N3CCOCC3)cc12 ; its IC50 = 1.7

----------
Assay target: Cyclin-dependent kinase 2 (Homo sapiens, UniProt P24941)
Measured attribute: pIC50
Answers are plain numbers, as −log10 of the molar value.

molecule CC(=O)Nc1cccc(-c2ccc(C(N)=O)c3[nH]c4cc(C(=O)N5CCN(C)CC5)ccc4c23)c1C , pIC50 observed: 5.57

----------
Assay target: Tyrosine-protein kinase Lyn (Homo sapiens, UniProt P07948)
Sequence (P07948 whole entry): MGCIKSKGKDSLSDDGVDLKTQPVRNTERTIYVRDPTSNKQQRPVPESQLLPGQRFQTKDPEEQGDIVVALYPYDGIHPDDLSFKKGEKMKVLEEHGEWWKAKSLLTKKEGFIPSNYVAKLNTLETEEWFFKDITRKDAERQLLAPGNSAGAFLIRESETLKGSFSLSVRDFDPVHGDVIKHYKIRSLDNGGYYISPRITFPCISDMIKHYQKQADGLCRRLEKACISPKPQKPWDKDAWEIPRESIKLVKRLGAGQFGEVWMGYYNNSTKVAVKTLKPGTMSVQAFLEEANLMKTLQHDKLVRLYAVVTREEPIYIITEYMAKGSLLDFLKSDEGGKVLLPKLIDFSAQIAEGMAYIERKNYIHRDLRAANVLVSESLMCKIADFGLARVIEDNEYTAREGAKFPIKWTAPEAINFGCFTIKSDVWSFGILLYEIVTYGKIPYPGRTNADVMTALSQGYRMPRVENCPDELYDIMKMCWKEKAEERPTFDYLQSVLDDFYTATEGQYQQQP
Measured attribute: IC50 (nM)
Give bare numbers, in nM.

IC50 reported for this compound CN1CCN(C(=O)c2ccc3c(c2)[nH]c2c(C(N)=O)ccc(-c4ccccc4F)c23)CC1 : 68

----------
Assay target: Tyrosine-protein kinase BTK (Homo sapiens)
Assay protocol: Inhibition of human recombinant BTK
Exercise: for every item that follows, state its recorded IC50.

Below are worked cases with known answers.
Structure notation	IC50
Cc1c(NC(=O)c2ccc(F)cc2)cccc1-c1ccc(C(N)=O)c2[nH]c3cc(C(=O)N4CCN(C)CC4)ccc3c12	0.0038 µM
COc1cccc(-c2cc(C(N)=O)c3[nH]c4ccc(C(=O)N5CCOCC5)cc4c3c2)c1	0.36 µM
CC(=O)Nc1ccc(-c2ccc(C(N)=O)c3[nH]c4ccc(C(=O)N5CCN(C)CC5)cc4c23)cc1	0.039 µM
CC(=O)Nc1cccc(-c2cc(C(N)=O)c3[nH]c4cc(C(=O)N5CCN(C)CC5)ccc4c3c2)c1	0.379 µM
CN1CCN(C(=O)c2ccc3c(c2)[nH]c2c(C(N)=O)ccc(-c4ccc(Cl)cc4)c23)CC1	0.059 µM
CN1CCN(C(=O)c2ccc3c(c2)[nH]c2c(C(N)=O)ccc(-c4cccc(NC(=O)c5ccc(N(C)C)cc5)c4F)c23)CC1	0.003 µM
CNC(=O)c1cccc(-c2ccc(C(N)=O)c3[nH]c4cc(C(=O)N5CCN(C)CC5)ccc4c23)c1	0.071 µM

Item: COc1ccc(-c2cc(C(N)=O)c3[nH]c4ccc(C(=O)N5CCOCC5)cc4c3c2)cc1 | IC50: 0.327 µM

----------
For reference, IC50 measured on Cytoplasmic tyrosine-protein kinase BMX (Homo sapiens):
Numbers only, in nM.

Before answering, review these 2 worked examples.
Structure notation	Measured attribute	Recorded number
CC(=O)Nc1cccc(-c2ccc(C(N)=O)c3[nH]c4cc(C(=O)N5CCN(C)CC5)ccc4c23)c1C	IC50	193
CN1CCN(C(=O)c2ccc3c(c2)[nH]c2c(C(N)=O)ccc(-c4cccc(NC(=O)c5ccc(N(C)C)cc5)c4F)c23)CC1	IC50	109

Please examine the following record next.
Data point: CN1CCN(C(=O)c2ccc3c(c2)[nH]c2c(C(N)=O)ccc(-c4ccccc4F)c23)CC1 ; IC50 = 119

----------
Assay target: Tyrosine-protein kinase ITK/TSK (Homo sapiens, UniProt Q08881)
Sequence (Q08881 whole entry): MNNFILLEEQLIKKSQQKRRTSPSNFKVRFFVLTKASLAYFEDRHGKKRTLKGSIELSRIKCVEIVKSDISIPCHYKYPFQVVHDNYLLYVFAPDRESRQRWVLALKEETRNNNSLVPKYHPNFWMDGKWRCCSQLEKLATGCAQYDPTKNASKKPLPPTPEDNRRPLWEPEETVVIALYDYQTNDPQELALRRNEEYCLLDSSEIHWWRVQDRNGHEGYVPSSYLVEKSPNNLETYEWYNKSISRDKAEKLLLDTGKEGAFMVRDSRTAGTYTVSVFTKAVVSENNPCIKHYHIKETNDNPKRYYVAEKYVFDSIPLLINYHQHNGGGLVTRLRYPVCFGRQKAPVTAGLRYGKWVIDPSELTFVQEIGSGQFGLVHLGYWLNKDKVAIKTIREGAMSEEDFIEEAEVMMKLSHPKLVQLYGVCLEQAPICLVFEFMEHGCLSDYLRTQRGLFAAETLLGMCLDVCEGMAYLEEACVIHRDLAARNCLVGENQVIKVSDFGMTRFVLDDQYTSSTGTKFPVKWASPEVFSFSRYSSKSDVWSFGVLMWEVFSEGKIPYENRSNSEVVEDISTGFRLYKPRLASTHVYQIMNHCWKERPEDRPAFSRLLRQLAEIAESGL
Measured attribute: IC50 (nM)
Numbers only, in nM.

Structure notation	Value units	IC50
CC(=O)Nc1cccc(-c2ccc(C(N)=O)c3[nH]c4cc(C(=O)N5CCN(C)CC5)ccc4c23)c1C	nM	55

The molecule identified as CN1CCN(C(=O)c2ccc3c(c2)[nH]c2c(C(N)=O)ccc(-c4ccccc4F)c23)CC1 registered its IC50 at 39

Source listed as ChEMBL document CHEMBL3621099.
